// values below are reported inhibition
# Assayed System: Hexose transporter 1 (Plasmodium falciparum)
# Protocol: ST_JUDE_LEISH: Cytotoxicity at 2uM final concentration against transgenic Leishmania Mexicana promastigotes LmPfHT that are glucose transport deficient and complemented with the Plasmodium falciparum hexose transporter. Activity is measured by DNA content using SYBR green in vitro
# Format: functional
Field format: number, assumed %, no unit text.

// worked examples, inhibition included
Cc1nnsc1C(=O)Nc1ccc(-c2cccc(-c3nc4cc(C(F)(F)F)ccc4[nH]3)c2)cc1: 0.86
COc1cccc(CCNCCCCCCNCCc2ccc(Cl)cc2)c1: 2.74
COc1cccc(Nc2nc(N)c3ccccc3n2)c1: 18.8
Cc1ccc(C(c2nnnn2C2CCCC2)N(Cc2ccco2)Cc2ccccc2Cl)cc1 (stereo not given): 9.7

Request: Look up inhibition for this molecule: "Cc1c(CNCCN2CCCCC2)c(C(=O)O)c(C)n1Cc1ccc(Cl)cc1"
Result: 0.33

Request: What does the data say about its inhibition? Entry: "Nc1cccc(CNCc2ccc(-c3ccc(-c4nc5cc(C(F)(F)F)ccc5[nH]4)s3)cc2)c1"
Result: 1.24

Values were extracted from ChEMBL document CHEMBL3433997.
